- Target system: CSK (Homo sapiens, UniProt P41240)
- Sequence (P41240 whole entry): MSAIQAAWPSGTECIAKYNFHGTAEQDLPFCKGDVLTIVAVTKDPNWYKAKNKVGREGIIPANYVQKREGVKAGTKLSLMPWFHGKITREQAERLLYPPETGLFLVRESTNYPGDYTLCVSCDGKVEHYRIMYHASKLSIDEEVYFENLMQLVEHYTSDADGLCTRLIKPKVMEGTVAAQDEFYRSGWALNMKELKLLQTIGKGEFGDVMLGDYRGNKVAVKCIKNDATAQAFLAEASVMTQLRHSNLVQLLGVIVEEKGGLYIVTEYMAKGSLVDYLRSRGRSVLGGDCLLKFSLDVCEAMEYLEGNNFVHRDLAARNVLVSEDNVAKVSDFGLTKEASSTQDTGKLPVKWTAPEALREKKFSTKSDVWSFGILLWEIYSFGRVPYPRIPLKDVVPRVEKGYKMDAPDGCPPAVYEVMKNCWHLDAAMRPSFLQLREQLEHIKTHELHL
- Test protocol: Kinase profiling (radiometric filter-binding)
- Assay type: biochemical
- Applied conditions: 1 µM inhibitor, read-out: Residual activity, %
Square brackets hold non-standard residues; d marks the D form. Peptide text beside a SMILES is read from it. * marks the point of attachment. X3 = O=C(CCCCCNCc1nc2c(sc3cc(Br)cnc32)c(=O)[nH]1)*
Measure name: remaining activity at 1 µM (%)
Give just the number in %; leave the unit off.

Query :: Please report remaining activity at 1 µM for the following compound: N=C(N)NCCC[C@@H](NC(=O)CNC(=O)[C@@H](CCCNC(=N)N)NC(=O)[C@@H](CCCNC(=N)N)NC(=O)Cn1cc(CNCc2nc3c(sc4ccc(Br)cc43)c(=O)[nH]2)nn1)C(=O)N[C@H](CCCCN)C(N)=O [Compound 3, BBTP-Amt-(D-Arg)2-Gly-D-Arg-D-Lys-NH2]
Result :: 116

Query :: Please report remaining activity at 1 µM for the following compound: N=C(N)NCCC[C@@H](NC(=O)CNC(=O)[C@@H](CCCNC(=N)N)NC(=O)[C@@H](CCCNC(=N)N)NC(=O)CCCCCCCNCc1nc2c(sc3ccc(Br)cc32)c(=O)[nH]1)C(=O)N[C@H](CCCCN)C(N)=O [Compound 2, BBTP-Aoc-(D-Arg)2-Gly-D-Arg-D-Lys-NH2]
Result :: 112

Query :: Please report remaining activity at 1 µM for the following compound: N=C(N)NCCC[C@@H](NC(=O)CCCCCNC(=O)Cn1cnc2c(I)c(I)c(I)c(I)c21)C(=O)N[C@H](CCCNC(=N)N)C(=O)N[C@H](CCCNC(=N)N)C(=O)N[C@H](CCCNC(=N)N)C(=O)N[C@H](CCCNC(=N)N)C(=O)N[C@H](CCCNC(=N)N)C(=O)N[C@H](CCCCN)C(N)=O [ARC-3125, TIBI-CH2-C(=O)-Ahx-(D-Arg)6-D-Lys-NH2]
Result :: 85

Query :: Please report remaining activity at 1 µM for the following compound: N=C(N)NCCC[C@@H](NC(=O)CNC(=O)[C@@H](CCCNC(=N)N)NC(=O)[C@@H](CCCNC(=N)N)NC(=O)CCCCCCCNCc1nc2c(sc3cc(Br)cnc32)c(=O)[nH]1)C(=O)N[C@H](CCCCN)C(N)=O [Compound 1, BPTP-Aoc-(D-Arg)2-Gly-D-Arg-D-Lys-NH2]
Result :: 141

Query :: Please report remaining activity at 1 µM for the following compound: N=C(N)NCCC[C@@H](NC(=O)CCCCCNCc1nc2c(sc3cc(Br)cnc32)c(=O)[nH]1)C(=O)N[C@H](CCCNC(=N)N)C(=O)N[C@H](CCCNC(=N)N)C(=O)N[C@H](CCCNC(=N)N)C(=O)N[C@H](CCCNC(=N)N)C(=O)N[C@H](CCCNC(=N)N)C(=O)N[C@H](CCCCN)C(N)=O [ARC-3126, BPTP-Ahx-(D-Arg)6-D-Lys-NH2] (X3-[dR][dR][dR][dR][dR][dR][dK]-NH2)
Result :: 91
